System: K4 kissing-loop RNA reporter;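 also: bound reporter read as fluorescence of individual clusters on recovered sequencing chips by microscopy, with normalized cluster intensities fitted with a binding model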
Experiment: apparent KD of K4 kissing-loop reporter; higher = weaker reporter binding
Details: Eterna round: R107; input ligand: tryptophan 2.4 mM
Please map values of apparent KD of K4 kissing-loop reporter to classes as shown: low: < 100 nM; medium: ≥ 100 nM and < 400 nM; high: ≥ 400 nM

[[record]]
sequence_entry = "GAGGUACAGGCGGCCGCCACUAGUGAUGUUAGUGAUGUUUGAUACUGUAUAUAUCGGCGUGUAGAUAGGACCGGGCCUGAUGGAG [znmkmullin]"
group_label = "low"

[[record]]
sequence_entry = "UUGUUAUGAUAAAAUCCUGUUUGAUAAAGACAGGAUAUAGAAAAUACUAGAAGGGUCAUUAUAUGCAGUGAUGUUGCAAAUAAGU [Exclusion FMN A Gf 22]"
group_label = "low"

[[record]]
sequence_entry = "GGAGUUACCUGGGAUACCAGUCGGAGGCCCAGAGCUCGGAGUGAUGUUCUGGGAUGUUUCGGCCCUUGGCAGCUCUGGGUCUCCC [#2 Exclusion - Theophylline B Attempt #7 (HarryS)]"
group_label = "high"

[[record]]
sequence_entry = "UGGAUAUAGUGAUGUUAUAUAGAGAGUGAUACCAGUUUAGAGAAGAACCCUUGGCAGCAUAAAGAAGUAUCAUUAGAGAAGAAUG [ExTheophyl.Ao]"
group_label = "medium"

[[record]]
sequence_entry = "UGUCAUUGGUCGGCCGCCACUAGAAGGUCAAAGACCAUAGAGUGAUGUUCUGAGACGAAAGUCACUAGGACCGGGACCGAUGACU [TrypBS 6 #SwitchBubble #K4Middle]"
group_label = "high"

[[record]]
sequence_entry = "GGCCGCAAGGCGAGCGCUCCCACUCCGGAAGGAGCGCCCGUAAGGGCAGGUAGGUCGCCGGAGUGAUGUUCCGGUGGAGGGCUCG [#2 Exclusion - Arginine A Attempt #17 (Inspired by Omei)]"
group_label = "high"

[[record]]
sequence_entry = "CUUGAGACAUGAGUGAUGUUCAUGUCCGAAGGAGCGUGCGAAAGCACAGGUAGGUCGCGGACGUGAGUGAUGUUCAUGUGAGCGA [KL-XArg-A10 #analogue]"
group_label = "medium"

[[record]]
sequence_entry = "AUUUAAUGUAUAGAUUAUAUACAUUAUUCAGAGGAUAUGCAUUGAAGCAGAAGGCUGGGUGUAGUGAUGUUGCAGUUUUAAUUUA [whbob_SS_FMNA__2th173]"
group_label = "medium"

[[record]]
sequence_entry = "UUUUUCGCGUUUGAUACCAGCAGAGUUGUUCUUGUCUGGAACAUGAGUGAUGUUCAUGUCUGCCCUUGGCAGCAAACGGGAGAAG [KL-XTheo-B12]"
group_label = "medium"

[[record]]
sequence_entry = "UGACUACAAGGAAAAUAAUCCUAGUGAUGUUAGGAUAUGCUGAUAAGCAGAAGGAACUGAGAUCGAAAGAUCUCAAAUGUAGUCU [FmnAX 27 Mat Inspired #SwitchBubble #StaticStem #K4Early]"
group_label = "low"

[[record]]
sequence_entry = "UUAGUCUAGAGAGGAUAUCAGUGAUGUUGAUAUCAAGAUCUAAGAUAGAAUUCUAUCUUAGAUCAAUGAGAAGGCUCUAGACAUU [AK1.1 Exc FMN B]"
group_label = "medium"

[[record]]
sequence_entry = "CUUGGAAGGACGGCCGCCACUGGGCAGUGAUGUUGCCCGACCAGGUAACGCAGUGAUGUUGCGACCAGGACCGGGUCCUAGGAAU [Exclusion Tryptophan B GF 24]"
group_label = "medium"

[[record]]
sequence_entry = "GGUAGCAUGGCGGCCGCCACUACCUAGUGAUGUUAGGCUGUGGACAUAGGAGCAAAAUAAAUAUGUAGGACCGGGCCAUGCUACC"
group_label = "medium"

[[record]]
sequence_entry = "GCCGUACGCAUGGAUACCAGCAAGCAUAGCAGGAAACUGCUAUGCACCAGUGAUGUUGGAUGCCCUUGGCAGCCAUGCGUACGGC"
group_label = "high"

[[record]]
sequence_entry = "CGCCGUAAGGCGGUCGCUCCCACUCCGGAAGGAGCGCCCGGAAGGGCAGGUAGGUCGCCGGAGUGAUGUUCCGGUGGAGGGACCG [#2 Exclusion - Arginine A Attempt #9 (Inspired by Omei)]"
group_label = "medium"

